# System Name: Toll-like receptor 2 (Mus musculus)
# Sequence (Q9QUN7 whole entry): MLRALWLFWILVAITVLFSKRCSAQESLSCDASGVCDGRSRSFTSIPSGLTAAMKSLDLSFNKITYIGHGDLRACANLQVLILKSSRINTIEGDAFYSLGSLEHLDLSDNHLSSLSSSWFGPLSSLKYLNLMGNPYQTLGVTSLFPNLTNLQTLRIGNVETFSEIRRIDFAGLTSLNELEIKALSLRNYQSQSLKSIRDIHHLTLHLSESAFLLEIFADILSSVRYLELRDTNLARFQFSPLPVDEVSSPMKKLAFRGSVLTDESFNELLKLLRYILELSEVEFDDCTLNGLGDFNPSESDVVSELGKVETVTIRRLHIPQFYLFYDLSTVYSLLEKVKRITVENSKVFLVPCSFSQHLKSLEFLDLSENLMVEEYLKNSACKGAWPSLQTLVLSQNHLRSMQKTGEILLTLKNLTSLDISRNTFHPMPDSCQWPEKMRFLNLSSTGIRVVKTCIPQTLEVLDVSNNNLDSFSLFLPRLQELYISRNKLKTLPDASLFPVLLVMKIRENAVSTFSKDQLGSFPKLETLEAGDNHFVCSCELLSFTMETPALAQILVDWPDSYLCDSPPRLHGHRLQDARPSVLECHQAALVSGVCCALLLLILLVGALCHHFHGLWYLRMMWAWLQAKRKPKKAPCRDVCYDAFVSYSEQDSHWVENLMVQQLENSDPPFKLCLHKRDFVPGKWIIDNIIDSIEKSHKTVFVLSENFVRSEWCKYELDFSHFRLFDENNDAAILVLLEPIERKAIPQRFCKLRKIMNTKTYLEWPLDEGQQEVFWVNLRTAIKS
pIC50: −log10 of the molar value. Where a SMILES comes first, the peptide text is derived from it. The star is where a group is joined. Propyl(2R-PamO,3-PamO) = CCCCCCCCCCCCCCCC(=O)OC[C@H](C*)OC(=O)CCCCCCCCCCCCCCC; X1 = CCCCCCCCCCCCCCCC(=O)OC[C@H](C*)OC(=O)CCCCCNC(=O)CCCCCCCC; X2 = CCCCCCCCCCCCCCCC(=O)OC[C@H](C*)OC(=O)CCNC(=O)CCCCCCCCCCC; X3 = CCCCCCCCCCCCCCCC(=O)OC[C@H](C*)OC(=O)CCCNC(=O)CCCCCCCCCC; X4 = CCCCCCCCCCCCCCCC(=O)OC[C@H](C*)OC(=O)CCCCCCNC(=O)CCCCCCC; X5 = CCCCCCCCCCCCCCCC(=O)OC[C@H](C*)OC(=O)CCCCNC(=O)CCCCCCCCC
The entries below are paired with their reported pIC50.

[
  {
    "Compound": "CCCCCCCCCCCCCCCC(=O)OC[C@H](CSC[C@H](N)C(=O)N[C@@H](CO)C(=O)N[C@@H](CCCCN)C(=O)N[C@@H](CCCCN)C(=O)N[C@@H](CCCCN)C(=O)N[C@@H](CCCCN)C(=O)O)OC(=O)CCCCCNC(=O)CCCCCCCC (H-C(X1)SKKKK-OH)",
    "pIC50": 5.32
  },
  {
    "Compound": "CCCCCCCCCCCCCCCC(=O)OC[C@H](CSC[C@H](N)C(=O)N[C@@H](CO)C(=O)N[C@@H](CCCCN)C(=O)N[C@@H](CCCCN)C(=O)N[C@@H](CCCCN)C(=O)N[C@@H](CCCCN)C(=O)O)OC(=O)CCNC(=O)CCCCCCCCCCC (H-C(X2)SKKKK-OH)",
    "pIC50": 5.98
  },
  {
    "Compound": "CCCCCCCCCCCCCCCC(=O)OC[C@H](CSC[C@H](N)C(=O)N[C@@H](CO)C(=O)N[C@@H](CCCCN)C(=O)N[C@@H](CCCCN)C(=O)N[C@@H](CCCCN)C(=O)N[C@@H](CCCCN)C(=O)O)OC(=O)CCCCNC(=O)CCCCCCCCC (H-C(X5)SKKKK-OH)",
    "pIC50": 5.25
  },
  {
    "Compound": "CCCCCCCCCCCCCCCC(=O)OC[C@H](CSC[C@H](N)C(=O)N[C@@H](CO)C(=O)N[C@@H](CCCCN)C(=O)N[C@@H](CCCCN)C(=O)N[C@@H](CCCCN)C(=O)N[C@@H](CCCCN)C(=O)O)OC(=O)CCCNC(=O)CCCCCCCCCC (H-C(X3)SKKKK-OH)",
    "pIC50": 5.86
  },
  {
    "Compound": "CCCCCCCCCCCCCCCC(=O)OC[C@H](CSC[C@H](N)C(=O)N[C@@H](CO)C(=O)N[C@@H](CCCCN)C(=O)N[C@@H](CCCCN)C(=O)N[C@@H](CCCCN)C(=O)N[C@@H](CCCCN)C(=O)O)OC(=O)CCCCCCNC(=O)CCCCCCC (H-C(X4)SKKKK-OH)",
    "pIC50": 5.24
  },
  {
    "Compound": "CCCCCCCCCCCCCCCC(=O)OC[C@H](CSC[C@H](N)C(=O)N[C@@H](CO)C(=O)N[C@@H](CCCCN)C(=O)N[C@@H](CCCCN)C(=O)N[C@@H](CCCCN)C(=O)N[C@@H](CCCCN)C(=O)O)OC(=O)CCCCCCCCCCCCCCC (H-C(Propyl(2R-PamO,3-PamO))SKKKK-OH)",
    "pIC50": 6.46
  }
]
